- test system: human IL-6 (human, UniProt P05231 30-212)
- Sequence (P05231 30-212 limits assumed): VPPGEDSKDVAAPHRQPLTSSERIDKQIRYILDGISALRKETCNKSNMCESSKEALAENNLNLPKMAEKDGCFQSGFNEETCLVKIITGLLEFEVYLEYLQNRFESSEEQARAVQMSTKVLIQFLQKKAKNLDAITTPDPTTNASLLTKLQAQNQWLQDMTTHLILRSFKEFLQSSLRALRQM
- assay text: SPR Biacore, supernatant, Protein A capture, 37 C
readout label: Kd (nM)
Write the value in nM as a bare number.

Query: So what's the measured Kd for this one? Anti-IL-6 antibody, heavy chain S35H, G66D, L100G / light chain M32L, M50D, N52S, M88Q (antibody, IgG1, V domains shown, IgG1; variable domains only; VL is variant III) VH: EVQLVESGGGLVQPGGSLRLSCAASGFTFSPFAMHWVRQAPGKGLEWVAKISPGGSWTYYSDTVTDRFTFSLDTSKSTAYLQMNSLRAEDTAVYYCARQGWGYYALDIWGQGTLVTVSS VL: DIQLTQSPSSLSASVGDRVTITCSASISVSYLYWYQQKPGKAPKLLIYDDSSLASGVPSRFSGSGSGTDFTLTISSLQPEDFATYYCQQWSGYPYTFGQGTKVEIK
Reply: 0.233

Query: So what's the measured Kd for this one? Anti-IL-6 antibody, heavy chain S35H, G66D, L100D / light chain M32L, M50D, N52S, M88Q (antibody, IgG1, V domains shown, IgG1; variable domains only; VL is variant III) VH: EVQLVESGGGLVQPGGSLRLSCAASGFTFSPFAMHWVRQAPGKGLEWVAKISPGGSWTYYSDTVTDRFTFSLDTSKSTAYLQMNSLRAEDTAVYYCARQDWGYYALDIWGQGTLVTVSS VL: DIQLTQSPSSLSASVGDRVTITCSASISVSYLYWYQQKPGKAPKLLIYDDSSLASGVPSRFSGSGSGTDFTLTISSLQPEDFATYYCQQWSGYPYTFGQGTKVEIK
Reply: 0.35

Query: So what's the measured Kd for this one? Anti-IL-6 antibody, heavy chain S35H, G66D, L100E / light chain M32L, M50D, N52S, M88Q (antibody, IgG1, V domains shown, IgG1; variable domains only; VL is variant III) VH: EVQLVESGGGLVQPGGSLRLSCAASGFTFSPFAMHWVRQAPGKGLEWVAKISPGGSWTYYSDTVTDRFTFSLDTSKSTAYLQMNSLRAEDTAVYYCARQEWGYYALDIWGQGTLVTVSS VL: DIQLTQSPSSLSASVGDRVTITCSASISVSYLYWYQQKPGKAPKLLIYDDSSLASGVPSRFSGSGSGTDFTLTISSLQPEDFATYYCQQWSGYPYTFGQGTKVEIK
Reply: 0.704
